Let's look at some compounds and their measured viability, T/C.
tested on: MDA-MB-231 multicell spheroids, viability (%T/C); assay: Anticancer human tumor MDA-MB-231 cell line growth inhibition [IpAb]; settings: second compound 0.316 µM; first compound 0.316 µM; stronger effect = lower value;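 further: viability read after seven days of drug exposure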;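 on viability, T/C: 100% = DMSO vehicle control viability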
Give your result in % as a bare value.

Past entries and their recorded results:
# compound, quantitativeReadout
data = [
    ("C=CC(=O)N1CCN(c2nc(=O)n(-c3c(C)ccnc3C(C)C)c3nc(-c4c(O)cccc4F)c(F)cc23)C(C)C1 (stereo not given) + CC(C)NCC(C(=O)N1CCN(c2ncnc3c2C(C)CC3O)CC1)c1ccc(Cl)cc1", 105),
    ("Cn1ncc(Cl)c1-c1cc(C(=O)NC(CN)Cc2cccc(F)c2)sc1Cl (stereo not given) + CC(C)NCC(C(=O)N1CCN(c2ncnc3c2C(C)CC3O)CC1)c1ccc(Cl)cc1", 71.2),
    ("C=CCn1c(=O)c2cnc(Nc3ccc(N4CCN(C)CC4)cc3)nc2n1-c1cccc(C(C)(C)O)n1 + CC(C)NCC(C(=O)N1CCN(c2ncnc3c2C(C)CC3O)CC1)c1ccc(Cl)cc1", 30.1),
]

# value of viability, T/C, MDA-MB-231 multicell spheroids, viability (%T/C), item Cc1nc(NC(=O)N2CCCC2C(N)=O)sc1-c1ccnc(C(C)(C)C(F)(F)F)c1 (stereo not given) + CC(C)NCC(C(=O)N1CCN(c2ncnc3c2C(C)CC3O)CC1)c1ccc(Cl)cc1 = 58.3

# value of viability, T/C, MDA-MB-231 multicell spheroids, viability (%T/C), item COc1c(OCCCN2CCOCC2)ccc2c3n(c(=NC(=O)c4cnc(N)nc4)nc12)CCN3 + CCN1CCN(Cc2ccc(Nc3ncc(F)c(-c4cc(F)c5nc(C)n(C(C)C)c5c4)n3)nc2)CC1 = 34.4

# value of viability, T/C, MDA-MB-231 multicell spheroids, viability (%T/C), item C=CCn1c(=O)c2cnc(Nc3ccc(N4CCN(C)CC4)cc3)nc2n1-c1cccc(C(C)(C)O)n1 + CCN1CCN(Cc2ccc(Nc3ncc(F)c(-c4cc(F)c5nc(C)n(C(C)C)c5c4)n3)nc2)CC1 = 42.5

* * *

system: MDA-MB-231 multicell spheroids, viability (%T/C); test: Anticancer human tumor MDA-MB-231 cell line growth inhibition [IpAb]; conditions: curve of first compound; second compound 1 µM;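 further: viability read after seven days of drug exposure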
assayMetric: IC50

get_value(item= C=CC(=O)N1CCN(c2nc(=O)n(-c3c(C)ccnc3C(C)C)c3nc(-c4c(O)cccc4F)c(F)cc23)C(C)C1 (stereo not drawn) + CCN1CCN(Cc2ccc(Nc3ncc(F)c(-c4cc(F)c5nc(C)n(C(C)C)c5c4)n3)nc2)CC1 , readout=IC50) returns > 10 µM

get_value(item= Cn1nccc1Nc1nccc(-c2ccn(C(CO)c3ccc(Cl)c(F)c3)c(=O)c2)n1 (stereo not drawn) + CCN1CCN(Cc2ccc(Nc3ncc(F)c(-c4cc(F)c5nc(C)n(C(C)C)c5c4)n3)nc2)CC1 , readout=IC50) returns < 0.0316 µM

get_value(item= C=CC(=O)N1CCN(c2nc(=O)n(-c3c(C)ccnc3C(C)C)c3nc(-c4c(O)cccc4F)c(F)cc23)C(C)C1 (stereo not drawn) + CC(C)NCC(C(=O)N1CCN(c2ncnc3c2C(C)CC3O)CC1)c1ccc(Cl)cc1 , readout=IC50) returns > 10 µM

Origin of measurements: PubChem BioAssay AID2060328
